system: BVDV-1 (strain PE515); assay: Anti-BVDV assay, virus-induced cytopathic effect in MDBK cells (MTS); type: cell-based, Bovine Viral Diarrhea Virus; settings: Bovine viral diarrhea virus isolates and strains; Table 9; reduction of virus induced cytopathic effect in MDBK cells by 50%; BVDV strain PE515; mean of 2-5 determinations; read-out: EC50
Parameter log10 EC50: see the listing below.
Scale: log10; quantity: EC50; unit before log: µg/mL

compound	log10 EC50
CC(c1ccccc1)n1ccc2nc(-c3ccccc3)nc-2c1 (stereo not drawn) [GPJN-33]	-0.70

Input: Fill in: log10 EC50 of Clc1ccc(Cn2ccc3nc(-c4ccccc4)nc-3c2)s1 [GPJN-25] is ___
Output: -2.05

Input: Fill in: log10 EC50 of Brc1cccc(-c2nc3ccn(Cc4ccc(I)cc4)cc-3n2)c1 [GPJN-79] is ___
Output: -1.08

---

tested on: BVDV-1 (strain PE515); assay: Anti-BVDV assay, virus-induced cytopathic effect in MDBK cells (MTS); format: cell-based, Bovine Viral Diarrhea Virus; conditions: Bovine viral diarrhea virus isolates and strains; Table 9; reduction of virus induced cytopathic effect in MDBK cells by 50%; BVDV strain PE515; mean of 2-5 determinations; read-out: EC50
In plain terms, low EC50, meaning strictly below 0.2 µg/mL, gives condition met, and everything else gives condition not met.

Completed entries (count: 3):
structure	cat
CC(C)CCn1ccc2nc(-c3ccccc3)nc-2c1	condition not met
Clc1ccc(Cn2ccc3nc(-c4cccc(Br)c4)nc-3c2)cc1	condition met
c1ccc(-c2ccc(Cn3ccc4nc(-c5ccccc5)nc-4c3)cc2)cc1	condition met

Input: Consider the compound c1ccc(-c2nc3ccn(Cc4ccccn4)cc-3n2)cc1 . Is its EC50 strictly less than 0.2 µg/mL?
Output: condition not met

Input: Consider the compound COc1cccc(-c2nc3ccn(Cc4ccc(Br)cc4)cc-3n2)c1 . Is its EC50 strictly less than 0.2 µg/mL?
Output: condition met

---

tested on: BVDV-1 (strain PE515); experiment: Anti-BVDV assay, virus-induced cytopathic effect in MDBK cells (MTS); assay type: cell-based, Bovine Viral Diarrhea Virus; conditions: Bovine viral diarrhea virus isolates and strains; Table 9; reduction of virus induced cytopathic effect in MDBK cells by 50%; BVDV strain PE515; mean of 2-5 determinations; read-out: EC50
Parameter EC50: see the listing below.
Answer format: numeric, µg/mL implied, no suffix.

Past entries and their recorded results:
molecule	system.under.test	uom	EC50
Fc1cccc(F)c1-c1nc2ccn(Cc3ccc(Cl)c(Cl)c3)cc-2n1 [GPC-10]	BVDV-1 (strain PE515)	µg/mL	0.064
c1ccc(-c2nc3ccn(Cc4ccncc4)cc-3n2)cc1 [GPJN-31]	BVDV-1 (strain PE515)	µg/mL	0.455
N#Cc1ccc(Cn2ccc3nc(-c4ccccc4)nc-3c2)cc1 [GPJN-23]	BVDV-1 (strain PE515)	µg/mL	0.014

Input: Fill in: EC50 of Clc1cccc(-c2nc3ccn(Cc4ccc(Br)cc4)cc-3n2)c1 [GPJN-55] is ___
Output: 0.06

Input: Fill in: EC50 of c1ccc(OCCn2ccc3nc(-c4ccccc4)nc-3c2)cc1 [GPJN-73] is ___
Output: 0.017

Input: Fill in: EC50 of Fc1cccc(Cn2ccc3nc(-c4ccccc4)nc-3c2)c1 [GPJN-18] is ___
Output: 0.019
